Reported melting point values for a set of compounds

// worked examples, melting point included
O=C(Nc1ccc2c(c1)nc1n2CCC1)c1cc2cccnc2n1Cc1ccccc1	251 to 252 °C
COc1cc2c(c(F)c1CNC1CCCNC1c1ccccc1)N(C)C(=O)CC2(C)C (configuration not stated)	> 270 °C
CC(=O)Nc1ccccc1NC(=O)CN1C(=O)c2ccccc2C1=O	270 °C

What does the record list as melting point for Cc1cc2c(cc1C)OC(CCN1CCC3(CC1)CNC(=O)CO3)CO2 (configuration not stated) ?
164 to 166 °C

Again, but for CC(C)(C)OC(=O)NC1CCCCCC=CC2CC2(C(=O)NS(=O)(=O)C2CC2)NC(=O)C2CC(OC(=O)c3cnccn3)CN2C1=O (configuration not stated)
150 to 152 °C

# repeat for Cc1oc(-c2ccccc2)nc1COc1cccc(C=CC=C2OC(=O)NC2=O)c1
229 to 230 °C

Same question, O=[N+]([O-])CCc1[nH]ccc1-c1ccc(I)cc1 this time
88 to 89 °C

For COc1ccc(Cn2nc(COC(C)(C)C(=O)O)c3ccccc32)cc1 then?
169 to 171 °C

Also check CCc1nsc(N=C(Cl)N(C)C)c1C#N
95 to 97 °C

Subsequent entry: O=C(N[C@H]1CCN(CCc2ccc(F)cc2)C1)N(C1CCCCC1)C1CCCCC1
97 to 98 °C

Also Fc1ccc(N2CC3CCC2CN3Cc2ccccc2)cc1 (configuration not stated) ?
74 to 76 °C

###

assay.metric: melting point

Illustrative cases are given below, each with its answer.
Nc1ncc(C2OC(CO)C(O)C2O)c(Cl)n1 (stereo unspecified)	195 to 197 °C
CC(=O)Nc1ncc(/C=C/c2ncc(C(C)(C)C)o2)s1	275 °C
CCOC(=O)c1cc(C(=O)O)nc2cc(Cl)cc(Cl)c12	152 to 154 °C
Oc1ccc(Br)cc1C(O)c1ccc2ccccc2c1 (stereo unspecified)	115 to 117 °C
NS(=O)(=O)c1cccc2c1c([N+](=O)[O-])cc1nc(O)c(O)nc12	360 °C
O=C(c1ccccc1)c1c(Cl)cc2n1CCC2C(=O)O (stereo unspecified)	190 °C
O=C(Nc1nccs1)c1nc(-c2cccc3ccccc23)[nH]c1-c1ccc(Cl)cc1	206 to 208 °C
Cc1nn(-c2cccnc2)cc1[N+](=O)[O-]	122 to 124 °C

Fill in: melting point of O=C1CNC(=O)N1Cc1ccccc1 is ___
139 to 140 °C

Please give the result for O=C(Nc1cccc([N+](=O)[O-])c1)NC1C(=O)N(CC23CC4CC(CC(C4)C2)C3)c2ccccc2N(c2ccccc2)C1=O (stereo unspecified) too.
213 to 215 °C

Now consider COc1ccc(C(=O)Nc2ccc(C(C)(C)C#N)c(-c3cccc(Cl)c3)c2)cc1OC and answer again.
144 to 146 °C

###

List of melting point values.

Cc1c2cc(C(=O)O)[nH]c2cc2c1sc1ccccc12	271 to 272 °C
CCOC(=O)C=Cc1ccc(OCc2csc(-c3ccccc3)n2)c(OC)c1	92 to 93 °C
COc1cccc(Oc2cccc(C#CC(C)N(O)C(N)=O)c2)n1 (stereo unspecified)	90 to 91 °C
COc1cc(-n2cccn2)ncn1	108 to 109 °C

Recorded melting point for CCOCCNc1nc(Cl)nc(Cl)n1 , please?
77 °C

Item: CC(=O)SC(C(=O)c1cccc(F)c1)C(C)C(=O)N1CCC[C@H]1C(=O)O (stereo partly specified)
158 to 159 °C

Same again, this time with CC(C)c1ccc(C2C(=O)Oc3ccc(Br)cc32)cc1 (stereo unspecified)
157 to 158 °C

Entry to check: CCOC(=O)c1cn(CCCl)c2nc(N3CCN(C)CC3)ncc2c1=O
154 to 155 °C

Please do the same for Cc1cc(C)c(Nc2nc(C)ccc2S(=O)(=O)c2ccc(OCc3csc(C)n3)cc2)c(C)c1 as well.
200 to 201 °C

Follow-up entry: Nc1cc(NS(=O)(=O)CCl)c(Cl)cc1F
104 to 106 °C

Check CC(=O)N1N=C(c2ccc([N+](=O)[O-])cc2)c2cc3c(cc2C=C1C)OCCOC3 too.
202 to 204 °C

Lookup COC(=O)c1c(OC)ccc(NC(=O)C(F)(F)F)c1OC
112 to 113 °C
